Test: Kpuu determination in the dog (plasma and CSF time course after oral capsule)
Format: in vivo, male beagle dog
Conditions: male, beagle, plasma, 20 mg/kg oral capsule, 4 h, read-out: Plasma concentration
Protocol: Example 3 was loaded as a solid, Batch No. C2210502, into enteric coated capsule (0#). […] Capsule containing 20 mg/kg of Example 3 were administered orally and plasma and CSF samples were taken pre-dose, 0.5, 1, 2, 4, 8 12 and 24 hours post dosing and analysed for concentration of Example 3 in analogous fashion to the study above. […]
measured-parameter: concentration at 4 h (ng/mL)
One number for each entry, in ng/mL.

Query: Given CC(C)(C)CC[C@H](NCc1ccc2c(c1)COCC2)C(=O)O [Example 3] , state its recorded concentration at 4 h.
Result: 5350
